Each entry below lists one item and its recorded inhibition in vivo at 25 mg/kg value.
test system: Lewis strain laboratory rats; experiment: In vivo alleviation of inflammation: polyarthritis (adjuvant, Mycobacterium butyricum) in rats, inhibition of paw volume increase; conditions: po, 336 h; 25 mpk p.o., rat; read-out: % INH. p.o. (percentage inhibition of pad swelling)
measuredEndpoint: inhibition in vivo at 25 mg/kg (%)

• COc1ccc(-n2nc(CCC(=O)N(O)C(C)(C)C)cc2-c2ccc(Cl)cc2)cc1 [Compound 58] = 47
• COCCCc1cc(-c2ccc(Cl)cc2)n(-c2ccc(OC)cc2)n1 [Compound 24] = 64
• COc1ccc(-n2nc(CCC(=O)NCC(=O)O)cc2-c2ccc(Cl)cc2)cc1 [Compound 66] = 62
• Cc1ccc(-n2nc(CCCO)cc2-c2ccc(Cl)cc2)cc1 [Compound 37] = 41

Provenance of the data: patent US5164381A
